meta.source: the METLIN SMRT retention time set (Domingo-Almenara et al. 2019)

- assay_notes: gradient 5% acetonitrile 3 min, to 50% in 2 min, to 85% in 15 min, held 3 min, 100 µL/min
- condition_context: column: Zorbax Extend-C18 2.1 x 50 mm; eluents: water / acetonitrile, 0.1% formic acid
measured_quantity: RP-LC retention time (s)

Cc1ccc(NC(=O)Cn2nc(N(C)C)c3ccccc3c2=O)cc1 | 857

a: Cc1ccc(N2CC(C(=O)NCC(=O)N3CCCc4ccccc43)CC2=O)cc1C (stereo unspecified)
b: CCOC(=O)Cn1nc(-n2ccnc2)ccc1=O
Out of a and b , name the one with the higher RP-LC retention time. Kindly give the label for the entry you pick. a

----------
- assay_notes: gradient 5% acetonitrile 3 min, to 50% in 2 min, to 85% in 15 min, held 3 min, 100 µL/min
- condition_context: column: Zorbax Extend-C18 2.1 x 50 mm; eluents: water / acetonitrile, 0.1% formic acid
measured_quantity: RP-LC retention time (s)

COc1cccc(C2CC(c3ccc4c(c3)OCO4)=NC3(CCN(C(C)C)CC3)N2)c1O (centres undefined) | 599
Cn1c(SCc2ccc([N+](=O)[O-])cc2)nnc1-c1ccc2c(c1)OCO2 | 721
CCN(CC)c1cc(C)nc2nc(CN3CCN(c4ccc(OC)cc4)CC3)nn12 | 571

P: CCOC(=O)c1noc2ncnc(Nc3cc(C)cc(C)c3)c12
Q: CCN(CCCNC(=O)C1CCCN(c2ncnc3c2nc2n3CCCCC2)C1)c1cccc(C)c1 (centres undefined)
Out of P and Q , name the one with the higher RP-LC retention time. Kindly give the label for the entry you pick. P

----------
- assay_notes: gradient 5% acetonitrile 3 min, to 50% in 2 min, to 85% in 15 min, held 3 min, 100 µL/min
- condition_context: column: Zorbax Extend-C18 2.1 x 50 mm; eluents: water / acetonitrile, 0.1% formic acid
measured_quantity: RP-LC retention time (s)

CCn1ccc(C(=O)N2CCCC2c2ccc(OC)cc2)n1 (stereo not given) | 795
CCC1Oc2ccc(S(=O)(=O)N3CCC(C(=O)Nc4cccc(OC)c4)CC3)cc2NC1=O (stereo not given) | 854
O=C(NCC1CCN(C(=O)Oc2ccccc2)CC1)Nc1ccc(C(F)(F)F)cc1 | 947
OCCCCc1nccc2c1[nH]c1ccccc12 | 628
O=C(NCCc1ccccc1)N1CCC(c2noc(-c3ccccn3)n2)C1 (stereo not given) | 742

1: CCSc1nc(NC(C)C)c2cnn(CCNC(=O)Cc3c(C)noc3C)c2n1
2: Cc1ccc(S(=O)(=O)N2CC(=O)N(C3CCCC3)C3(CCCCC3)C2)c(C)c1
Out of 1 and 2 , name the one with the higher RP-LC retention time. Kindly give the label for the entry you pick. 2
(2: 1270 s, 1: 716 s)

----------
- assay_notes: gradient 5% acetonitrile 3 min, to 50% in 2 min, to 85% in 15 min, held 3 min, 100 µL/min
- condition_context: column: Zorbax Extend-C18 2.1 x 50 mm; eluents: water / acetonitrile, 0.1% formic acid
measured_quantity: RP-LC retention time (s)

1: CCOc1ccccc1NC(=O)Nc1ccc2c(c1)CCN2S(=O)(=O)c1ccc(C)cc1
2: COc1ccccc1C(CNC(=O)c1cc(=O)c2ccc(C)c(C)c2o1)N(C)C (centres undefined)
Please indicate which item has the smaller measured RP-LC retention time: 1 versus 2 Kindly give the label for the entry you pick. 2

----------
- assay_notes: gradient 5% acetonitrile 3 min, to 50% in 2 min, to 85% in 15 min, held 3 min, 100 µL/min
- condition_context: column: Zorbax Extend-C18 2.1 x 50 mm; eluents: water / acetonitrile, 0.1% formic acid
measured_quantity: RP-LC retention time (s)

Consider the following illustrative entries.
CC(C)CNC(=O)C1CCN(c2nc3ccc(-c4cccnc4)nc3s2)CC1 | 640
O=c1cc(CN2CCN(c3ncccn3)CC2)nc2sccn12 | 542
Cc1ccc(S(=O)(=O)N2CCCC(CCC(=O)O)C2)cc1 (centres undefined) | 812
O=S(=O)(NCCCCN1CCOC(c2ccccc2)C1)c1ccc(F)cc1F (centres undefined) | 584
CCN(CC)c1ccc(NC(=O)C2CCCN(c3ccc(=O)n(-c4cccc(Cl)c4)n3)C2)c(C)c1 (centres undefined) | 662

a: Cc1nc2cc(-c3noc(/C=C/c4ccco4)n3)ccc2n(C2CCCC2)c1=O
b: O=C(Nc1ccc(F)c(Cl)c1)N1CCC(OC2CCN(Cc3ccccc3)CC2)CC1
Out of a and b , name the one with the higher RP-LC retention time. Kindly give the label for the entry you pick. a

----------
- assay_notes: gradient 5% acetonitrile 3 min, to 50% in 2 min, to 85% in 15 min, held 3 min, 100 µL/min
- condition_context: column: Zorbax Extend-C18 2.1 x 50 mm; eluents: water / acetonitrile, 0.1% formic acid
measured_quantity: RP-LC retention time (s)

Consider the following illustrative entries.
O=C(c1cc2ccccc2[nH]1)N1CCN(c2cc(-c3cccnc3)[nH]n2)CC1 | 630
O=C1CCCc2c1cc(C(=O)Nc1ccc(Cl)cc1)c(=O)n2-c1ccc(F)cc1 | 1060
CN1C(=O)c2cc(S(=O)(=O)Nc3ccc(Cl)cc3)ccc2Oc2cccnc21 | 950
COC(=O)C1=C(C)N(C2CCCC2)C(=O)C1(NC(=O)CCc1ccccc1)C(F)(F)F (stereo not given) | 1080
CC(NC(=O)c1ccc(-c2cncnc2)nc1)c1ccccc1 (stereo not given) | 715

1: O=S(=O)(Nc1ccc(F)cc1)c1cccnc1Nc1ccc(F)c(F)c1
2: O=C(O)C1CCN(c2nc3ccc(-c4cccnc4)nc3s2)CC1
Out of 1 and 2 , name the one with the higher RP-LC retention time. Kindly give the label for the entry you pick. 1

----------
- assay_notes: gradient 5% acetonitrile 3 min, to 50% in 2 min, to 85% in 15 min, held 3 min, 100 µL/min
- condition_context: column: Zorbax Extend-C18 2.1 x 50 mm; eluents: water / acetonitrile, 0.1% formic acid
measured_quantity: RP-LC retention time (s)

CCc1cc(=O)n(CC(=O)Nc2ccc(F)cc2)c(N)n1 | 596

1: O=C(NCc1ccccc1F)c1ccc2c(c1)CN(Cc1cccs1)CCO2
2: COc1ccccc1-c1csc(NC(=O)Cc2csc(-c3ccccc3)n2)n1
Please indicate which item has the smaller measured RP-LC retention time: 1 versus 2 Kindly give the label for the entry you pick. 1

1: Cc1cc(OCC(=O)NCc2ccco2)nc(N2CCCCCC2)n1
2: Fc1cccc(Nc2ncnc3c2cnn3-c2ccccc2)c1
Out of 1 and 2 , name the one with the higher RP-LC retention time. Kindly give the label for the entry you pick. 2

A: CS(=O)(=O)NCc1ccc2c(c1)CCN2C(=O)c1ccc(Cl)cc1
B: O=C(Nc1ncn[nH]1)C1CCC1
Out of A and B , name the one with the higher RP-LC retention time. Kindly give the label for the entry you pick. A
(A: 794 s, B: 546 s)

----------
- assay_notes: gradient 5% acetonitrile 3 min, to 50% in 2 min, to 85% in 15 min, held 3 min, 100 µL/min
- condition_context: column: Zorbax Extend-C18 2.1 x 50 mm; eluents: water / acetonitrile, 0.1% formic acid
measured_quantity: RP-LC retention time (s)

Consider the following illustrative entries.
Cc1nc(-c2cc(S(=O)(=O)Nc3ccc(Br)cc3C)c(C)s2)cs1 | 1100
Cc1ccc(NC(=O)C(C)Oc2cc(C(F)(F)F)c3c(C)nn(C)c3n2)c(C)c1 (stereo not given) | 920
Cc1ccc(Oc2nccnc2SCC(=O)Nc2cc(C)cc(C)c2)cc1 | 1200

A: O=C1CC(c2noc(-c3cc(F)ccc3F)n2)CN1c1ccc(Cl)cc1 (stereo not given)
B: COc1ccc(-c2nc(CNC(=O)C3CCOC3)no2)cc1 (stereo not given)
Out of A and B , name the one with the higher RP-LC retention time. Kindly give the label for the entry you pick. A

----------
- assay_notes: gradient 5% acetonitrile 3 min, to 50% in 2 min, to 85% in 15 min, held 3 min, 100 µL/min
- condition_context: column: Zorbax Extend-C18 2.1 x 50 mm; eluents: water / acetonitrile, 0.1% formic acid
measured_quantity: RP-LC retention time (s)

Consider the following illustrative entries.
Fc1ccc(-c2ccnc3nc(-c4ccccc4)nn23)cc1 | 949
CCOc1cc(C(=O)Nc2c(-c3ccccc3)nc3cc(C)ccn23)cc(OCC)c1OCC | 775
O=C(c1cc2c(s1)-c1ccccc1S(=O)(=O)C2)N1CCN(c2ccccn2)CC1 | 605
CCOC(=O)c1cnn(-c2ccc(C(=O)NC(C)C)cc2)c1N | 823
CCC(=O)N(C1CCOCC1)C1CCN(Cc2cccc(Br)c2)CC1 | 635
O=C(NCc1ccccc1)c1ccc2ncnc(N3CCCC3)c2c1 | 613

1: COc1cc2c(cc1OC)C(C(=O)Nc1ccc(C(C)C)cc1)C(c1cccnc1)N(C)C2=O (centres undefined)
2: O=C(NCc1ccc(Cl)cc1)c1c(O)c2cccnc2n(-c2ccc(F)cc2)c1=O
Please indicate which item has the smaller measured RP-LC retention time: 1 versus 2 Kindly give the label for the entry you pick. 1

----------
- assay_notes: gradient 5% acetonitrile 3 min, to 50% in 2 min, to 85% in 15 min, held 3 min, 100 µL/min
- condition_context: column: Zorbax Extend-C18 2.1 x 50 mm; eluents: water / acetonitrile, 0.1% formic acid
measured_quantity: RP-LC retention time (s)

Consider the following illustrative entries.
CC(=O)Nc1c(C(=O)Nc2ccc(Cl)cc2)nnn1-c1ccccc1 | 838
Cc1cc(C(=O)N2CCCCC2)c2c(=O)n(Cc3ccc4nonc4c3)c(=O)n(C)c2n1 | 902
Cc1ccc(Sc2cc3c(cc2NC(=O)c2ccco2)n(C)c(=O)n3C)cc1 | 988

P: O=C(CN1Cc2ccccc2C1=O)N[C@@H](Cc1c[nH]c2ccccc12)C(=O)O
Q: CCOc1ccc(NC(=O)c2c(O)c3cccnc3n(-c3ccc(F)cc3)c2=O)cc1
Out of P and Q , name the one with the higher RP-LC retention time. Kindly give the label for the entry you pick. Q

P: CCn1c(=O)c2ccn(CC(=O)N3CCN(c4ccc(Cl)cc4)CC3)c2n(CC)c1=O
Q: CC(=O)N1CCc2nn(C)c(=O)n2CC1
R: O=S(=O)(c1ccccc1Br)N1CCC(c2noc(-c3ccccc3)n2)CC1
Please order the records by their reported RP-LC retention time, lowest number first. Give your ranking as a list of the labels in the requested order. Q, P, R
